// each record: one item and its pIC50 for acetylcholine esterase AChE (Homo sapiens, UniProt P22303)
pIC50: −log10 of the molar value.
endpoint.name: pIC50

# entry.smiles, endpoint.name, value.prefix, measured.result
measured = [
    ("COc1cc(OC)c2c(O)c3c(=O)cc(C)oc3c(-c3c(OC)cc4cc(O)c5c(=O)cc(C)oc5c4c3OC)c2c1", "pIC50", "=", 5.12),
    ("COc1cc(OC)c2c(c1)cc(O)c1c(=O)cc(C)oc12", "pIC50", "<", 4.60),
    ("COc1cc(OC)c2c(O)c3c(=O)cc(C)oc3c(-c3c(OC)cc4cc5oc(C)cc(=O)c5c(O)c4c3OC)c2c1", "pIC50", "=", 5.31),
    ("COc1cc(OC)c2c(O)c3c(=O)cc(C)oc3cc2c1", "pIC50", "=", 4.86),
    ("NC(=O)c1c[nH]c(Cc2ccccc2)cc1=O", "pIC50", "=", 4.70),
]
